# Procedure details: NCI Yeast Anticancer Drug Screen. Data for the sgs1 mgt1 strain (AID 161);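 note: 0% = growth of cultures given vehicle only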
# Assay context: S. cerevisiae sgs1 mgt1 strain, at 50.0 µM (retest, dose inferred, filed as 5.0), hits give high values
This is part of a sample that, as a whole, favours compounds with a hit. Of some 79,000 tested, about 15% had one in any assay. Where a SMILES comes first, the peptide text is derived from it. [ ]: non-standard residue; d: D form. ξ: configuration not given here. ξV = CC(C)C(N)C(=O)O
Provide the recorded growth inhibition for the entries that follow.
One number for each entry, in %.

- Molecule: "Fc1ccccc1-c1ncc(-c2ccccc2)o1"
  Reported value: 60
- Molecule: "O=C(NC(C(=O)O)c1ccccc1)OCc1ccccc1 (stereo unspecified)"
  Reported value: -2
- Molecule: "CCN(CC)CCOc1ccc2c(C)c(-c3ccccc3)c(=O)oc2c1"
  Reported value: 38
- Molecule: "COc1ccc2c(c1)c[n+](C)c1c3cc(OC)c(OC)cc3ccc21"
  Reported value: 47
- Molecule: "O=C(OC(=Nc1ccccc1)N(c1ccccc1)c1ccccc1)c1ccccc1"
  Reported value: 40
- Molecule: "Nc1c(C(=O)O)ccc(C(=O)O)c1C(=O)O"
  Reported value: -67

Here are 4 molecules. What values of growth inhibition were reported for them?
1. COC1CC2CCC(C)[C@](O)(O2)C(=O)C(=O)N2CCCCC2C(=O)OC(C(C)CC2CCC(O)C(OC)C2)CC(=O)C(C)C=C(C)C(OC(=O)CN(C)C)C(OC)C(=O)C(C)CC(C)/C=C/C=C/C=C\1C (stereo partly specified)
2. CC(=O)Nc1c(Cl)c(Cl)c2c(c1Cl)Cc1cc(Cl)ccc1-2
3. Nc1cc2c(cc1Cl)[nH]c(=O)c1cc(Cl)ccc12
4. CC(C)C(NC(=O)CN)C(=O)O (stereo unspecified) (H-Gly-[ξV]-OH)

Found:
1. 96
2. 49
3. 17
4. -64

Here are 5 molecules. What values of growth inhibition were reported for them?
1. O=C(O)c1ccccc1C(=O)O
2. Cn1c2ccccc2c(=O)c2ccccc21
3. NC(C/[N+]([O-])=N/O)C(=O)O (stereo unspecified)
4. CCCCCCCCCCCCN
5. O=C(CC1=Nc2nnc(CCCCCCCc3nnc4n3C(=O)C(CC(=O)c3ccc5ccccc5c3)=N4)n2C1=O)c1ccc2ccccc2c1

Found:
1. 7
2. 9
3. 51
4. 98
5. 93

Here are 7 molecules. What values of growth inhibition were reported for them?
1. CC[N](CC)[Ge]([CH2]C)[CH2]C.C[CH2][Ge]([CH2]C)[CH2]C
2. O=C1N(c2ccccc2)C(=O)N1c1ccccc1
3. CN(C)CCNc1ccc(CO)c2oc3ccc(O)cc3c(=O)c12
4. O=C1C(=Cc2c[nH]c3ccccc23)C(=O)c2ccccc21
5. C=C1CC2(CC(c3ccccc3OC)OC(c3ccccc3OC)C2)OC1=O (stereo unspecified)
6. O=C1c2ccccc2C(=O)c2cc(S(=O)(=O)O)ccc21
7. CC(=O)Nc1ccc(S(=O)(=O)N/N=C/c2ccc(C)cc2)cc1

Found:
1: 99; 2: 3; 3: 36; 4: 91; 5: 70; 6: 42; 7: 6
